# tested system: stearoyl-CoA desaturase (SCD1) (Mus musculus)
# Sequence (P13516 whole entry): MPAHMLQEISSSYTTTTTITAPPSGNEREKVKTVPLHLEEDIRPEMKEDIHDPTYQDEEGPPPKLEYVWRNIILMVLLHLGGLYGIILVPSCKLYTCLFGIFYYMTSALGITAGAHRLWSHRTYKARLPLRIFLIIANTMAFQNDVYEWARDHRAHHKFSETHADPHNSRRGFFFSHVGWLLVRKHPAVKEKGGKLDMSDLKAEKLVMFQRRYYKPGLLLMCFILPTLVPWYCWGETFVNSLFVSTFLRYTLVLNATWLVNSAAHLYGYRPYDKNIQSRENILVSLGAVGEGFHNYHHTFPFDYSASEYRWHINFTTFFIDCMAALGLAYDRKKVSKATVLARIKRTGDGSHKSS
property measured: pIC50
Expect pIC50 as a plain number equal to -log10 of the molar concentration.

(Q) What pIC50 value was documented for this compound, O=C(NCc1ccncc1)c1cc(-n2cnn(Cc3ccc(F)cc3)c2=O)n[nH]1 ?
(A) 7.19

(Q) Request: NC(=O)c1cc(N2CCN(Cc3ccc(F)cc3)C2=O)n[nH]1
(A) 6.43

(Q) And what about the compound Cn1cc(CNC(=O)c2cc(N3CCN(Cc4ccc(F)cc4)C3=O)n[nH]2)cn1 ?
(A) 6.91

(Q) Could you do the same for O=C(NCc1cocn1)c1cc(-n2cnn(Cc3ccc(F)cc3)c2=O)n[nH]1 , please?
(A) 6.78

(Q) Field entry: Cc1cc(CNC(=O)c2cc(N3CCN(Cc4ccc(F)cc4)C3=O)n[nH]2)n[nH]1
(A) 7.06

---

Field: melting point. Provide a value for each of the compounds that follow.

(Q) What measured melting point goes with Cc1cc(CNC(=O)c2cc(-n3cnn(Cc4ccc(F)cc4)c3=O)n[nH]2)no1 ?
(A) 276 to 277 °C

(Q) And what about the compound O=C(NCc1ccccn1)c1cc(-n2cnn(Cc3ccc(F)cc3)c2=O)n[nH]1 ?
(A) 224 to 225 °C

(Q) Now the compound O=C(NCc1cocn1)c1cc(-n2cnn(Cc3ccc(F)cc3)c2=O)n[nH]1
(A) 267 to 268 °C

(Q) # iterate: CNC(=O)c1cc(-n2cnn(Cc3ccc(F)cc3)c2=O)n[nH]1
(A) 268 to 269 °C

(Q) Could you do the same for O=C(NCc1cccnc1)c1cc(-n2cnn(Cc3ccc(F)cc3)c2=O)n[nH]1 , please?
(A) 235 to 236 °C

(Q) Same read-out for O=C(NCc1cccnc1)c1cc(N2CCN(Cc3ccc(F)cc3)C2=O)n[nH]1 ?
(A) 251 to 253 °C

(Q) Now consider O=C(NCc1nccs1)c1cc(N2CCN(Cc3ccc(F)cc3)C2=O)n[nH]1 .
(A) 272 to 274 °C

(Q) What would you report for O=C(NCc1ccccn1)c1cc(N2CCN(Cc3ccc(F)cc3)C2=O)n[nH]1 ?
(A) 235 to 237 °C

(Q) Similarly, O=C(NCc1ccc(F)c(F)c1)c1cc(-n2cnn(Cc3ccc(F)cc3)c2=O)n[nH]1 ?
(A) 208 to 209 °C

(Q) Then this compound: Cn1cc(CNC(=O)c2cc(N3CCN(Cc4ccc(F)cc4)C3=O)n[nH]2)cn1
(A) 244 to 245 °C

(Q) Please give the result for NC(=O)c1cc(-n2cnn(Cc3ccc(F)cc3)c2=O)n[nH]1 too.
(A) > 270 °C

(Q) Try NC(=O)c1cc(N2CCN(Cc3ccc(F)cc3)C2=O)n[nH]1 next.
(A) 256 to 258 °C

(Q) What would you report for Cc1cc(CNC(=O)c2cc(N3CCN(Cc4ccc(F)cc4)C3=O)n[nH]2)no1 ?
(A) 294 to 296 °C (dec.)

(Q) Now consider Cc1cc(CNC(=O)c2cc(N3CCN(Cc4ccc(F)cc4)C3=O)n[nH]2)n[nH]1 and answer again.
(A) 254 to 255 °C

(Q) Thanks! And O=C(NCc1ccncc1)c1cc(-n2cnn(Cc3ccc(F)cc3)c2=O)n[nH]1 ?
(A) 262 to 263 °C

Data provenance is patent US20130011361A1.
